# ASSAY_COMMENT: binding affinity against sigma Opioid receptor was measured by using labeled ligand [3H]-SKF- 10,047 (1 nM)
Please go through the items and note down their pKi.
Answers are plain numbers, as −log10 of the molar value.

Worked set:
{"columns": ["TEST_SMILES", "VALUE"],
 "data": [
  ["CN1CC[C@]23c4cccc(O)c4O[C@H]2C(=O)CC[C@H]3C1", 5.68],
  ["COc1cccc2c1O[C@H]1[C@@H](O)CC[C@H]3CN(CC4CC4)CC[C@@]231", 6.39],
  ["O=C1CC[C@H]2CN(CC3CC3)CC[C@@]23c2cccc(O)c2O[C@@H]13", 6.15],
  ["Oc1cccc2c1O[C@H]1[C@@H](O)CC[C@H]3CN(CC4CC4)CC[C@@]231", 6.24],
  ["Oc1cccc2c1O[C@H]1CCC[C@H]3CN(CC4CC4)CC[C@@]231", 7.68],
  ["Oc1cccc2c1O[C@H]1[C@H](O)CC[C@@H]3CN(CC4CC4)CC[C@@]231", 6.52],
  ["O=C1CC[C@@H]2CN(CC3CC3)CC[C@@]23c2cccc(O)c2O[C@@H]13", 6.51]
]}

Q. Look up pKi for this compound: `COc1cccc2c1O[C@H]1C(=O)CC[C@H]3CN(CC4CC4)CC[C@@]231`
A. 6.36
